Where these numbers come from: ChEMBL document CHEMBL4507273

MEASUREMENT_TARGET: Sodium-dependent serotonin transporter (Homo sapiens)
Sequence (P31645 whole entry): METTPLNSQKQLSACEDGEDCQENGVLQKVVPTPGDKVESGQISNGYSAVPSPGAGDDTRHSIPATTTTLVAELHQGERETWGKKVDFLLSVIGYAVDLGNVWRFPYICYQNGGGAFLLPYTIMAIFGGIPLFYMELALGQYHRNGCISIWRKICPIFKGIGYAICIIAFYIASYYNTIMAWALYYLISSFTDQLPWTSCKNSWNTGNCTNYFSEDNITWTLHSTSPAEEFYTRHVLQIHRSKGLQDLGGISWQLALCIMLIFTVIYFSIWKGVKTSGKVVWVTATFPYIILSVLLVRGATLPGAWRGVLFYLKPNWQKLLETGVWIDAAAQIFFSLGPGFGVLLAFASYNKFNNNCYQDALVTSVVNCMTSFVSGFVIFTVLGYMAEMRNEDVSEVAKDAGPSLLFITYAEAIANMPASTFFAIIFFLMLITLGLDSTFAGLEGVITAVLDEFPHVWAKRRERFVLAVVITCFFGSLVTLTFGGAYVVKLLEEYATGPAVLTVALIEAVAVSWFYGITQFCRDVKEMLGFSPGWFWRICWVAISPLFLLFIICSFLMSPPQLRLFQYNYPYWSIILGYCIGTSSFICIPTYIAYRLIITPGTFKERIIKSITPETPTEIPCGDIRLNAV
OBSERVED_PROPERTY: pKi
One number for each entry, as −log10 of the molar value.

Q. So what pKi did CNCc1ccccc1-c1csc([C@H](C)Nc2nc(C)nc3cc(OC)c(OC)cc23)c1 [BAY-294] get with Sodium-dependent serotonin transporter (Homo sapiens)?
A. 5.37

====

MEASUREMENT_TARGET: Sigma intracellular receptor 2 (Homo sapiens)
Sequence (Q5BJF2 whole entry): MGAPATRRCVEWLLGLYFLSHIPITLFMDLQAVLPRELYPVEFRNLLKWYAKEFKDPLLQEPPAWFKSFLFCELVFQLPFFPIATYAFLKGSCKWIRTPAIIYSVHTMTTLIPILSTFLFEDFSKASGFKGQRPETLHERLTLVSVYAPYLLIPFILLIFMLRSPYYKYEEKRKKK
METHOD_DESCRIPTION: GPCRScan assay: inhibition of Sigma 2
Design: radioligand conc. used [nm] 5.0, parental cells HEKT
PARTICULARS: read-out: Ki
OBSERVED_PROPERTY: pKi
One number for each entry, as −log10 of the molar value.

• CNCc1ccccc1-c1csc([C@H](C)Nc2nc(C)nc3cc(OC)c(OC)cc23)c1 = 6.20

Q. Dear colleague, I am looking for the recorded pKi of the following compound: CNCc1ccccc1-c1csc([C@@H](C)Nc2nc(C)nc3cc(OC)c(OC)cc23)c1
A. 6.75

====

MEASUREMENT_TARGET: Alpha-2C adrenergic receptor (Homo sapiens)
Sequence (P18825 whole entry): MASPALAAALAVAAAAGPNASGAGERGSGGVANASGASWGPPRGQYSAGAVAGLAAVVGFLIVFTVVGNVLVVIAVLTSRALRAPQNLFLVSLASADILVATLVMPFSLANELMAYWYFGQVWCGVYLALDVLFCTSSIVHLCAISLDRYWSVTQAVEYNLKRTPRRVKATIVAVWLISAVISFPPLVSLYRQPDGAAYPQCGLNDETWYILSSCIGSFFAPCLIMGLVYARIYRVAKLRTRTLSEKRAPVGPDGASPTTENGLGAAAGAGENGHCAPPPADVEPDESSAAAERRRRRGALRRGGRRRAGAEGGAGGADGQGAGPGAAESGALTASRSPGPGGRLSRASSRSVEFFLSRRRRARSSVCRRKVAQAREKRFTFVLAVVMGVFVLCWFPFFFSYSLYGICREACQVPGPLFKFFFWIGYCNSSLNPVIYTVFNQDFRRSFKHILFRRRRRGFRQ
METHOD_DESCRIPTION: GPCRScan assay: inhibition of Alpha2C
Parameters: radioligand conc. used [nm] 0.5 – 1.0, parental cells stable MDCK
PARTICULARS: read-out: Ki
OBSERVED_PROPERTY: pKi
Numbers only, as −log10 of the molar value.

Hi! Can you tell me pKi for each of these compounds?
1. CNCc1ccccc1-c1csc([C@@H](C)Nc2nc(C)nc3cc(OC)c(OC)cc23)c1 [BAY-293]
2. CNCc1ccccc1-c1csc([C@H](C)Nc2nc(C)nc3cc(OC)c(OC)cc23)c1 [BAY-294]

A.
1: 6.88; 2: 7.02

====

MEASUREMENT_TARGET: Histamine H1 receptor (Homo sapiens, UniProt P35367)
Sequence (P35367 whole entry): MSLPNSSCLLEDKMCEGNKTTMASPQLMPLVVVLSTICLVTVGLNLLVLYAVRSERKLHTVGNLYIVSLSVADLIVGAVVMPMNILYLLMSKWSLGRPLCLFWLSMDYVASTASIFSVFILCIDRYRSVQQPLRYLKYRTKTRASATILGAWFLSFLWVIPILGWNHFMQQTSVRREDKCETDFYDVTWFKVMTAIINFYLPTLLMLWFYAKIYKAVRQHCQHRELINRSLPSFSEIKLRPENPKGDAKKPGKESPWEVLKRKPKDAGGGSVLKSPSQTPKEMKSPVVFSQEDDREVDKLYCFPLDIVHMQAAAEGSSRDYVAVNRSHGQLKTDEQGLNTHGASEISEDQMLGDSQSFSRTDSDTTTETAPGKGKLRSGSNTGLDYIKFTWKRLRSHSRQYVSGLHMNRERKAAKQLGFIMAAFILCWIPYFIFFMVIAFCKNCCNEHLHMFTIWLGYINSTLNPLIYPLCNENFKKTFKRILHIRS
METHOD_DESCRIPTION: GPCRScan assay: inhibition of H1
Parameters: radioligand conc. used [nm] 0.6 – 2.0, parental cells stable HEK
PARTICULARS: read-out: Ki
OBSERVED_PROPERTY: Ki (µM)
One number for each entry, in µM.

Q. Dear colleague, I am looking for the recorded Ki of the following compound: CNCc1ccccc1-c1csc([C@H](C)Nc2nc(C)nc3cc(OC)c(OC)cc23)c1
A. 1.37

====

MEASUREMENT_TARGET: Histamine H4 receptor (Homo sapiens)
Sequence (Q9H3N8 whole entry): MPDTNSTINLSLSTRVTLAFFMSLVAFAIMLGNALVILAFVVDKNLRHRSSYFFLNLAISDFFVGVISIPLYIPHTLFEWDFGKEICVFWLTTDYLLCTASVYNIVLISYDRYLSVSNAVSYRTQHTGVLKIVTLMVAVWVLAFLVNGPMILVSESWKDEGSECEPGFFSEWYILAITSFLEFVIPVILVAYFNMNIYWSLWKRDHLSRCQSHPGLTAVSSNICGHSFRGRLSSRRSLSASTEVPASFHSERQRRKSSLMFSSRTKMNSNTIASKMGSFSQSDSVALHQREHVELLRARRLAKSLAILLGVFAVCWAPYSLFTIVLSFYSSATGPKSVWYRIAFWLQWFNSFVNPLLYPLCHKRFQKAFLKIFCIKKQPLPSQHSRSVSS
METHOD_DESCRIPTION: GPCRScan assay: inhibition of H4
Parameters: radioligand conc. used [nm] 1.0 – 5.0, parental cells HEK T
OBSERVED_PROPERTY: Ki (nM)
Numbers only, in nM.

Q. Dear colleague, I am looking for the recorded Ki of the following compound: CNCc1ccccc1-c1csc([C@H](C)Nc2nc(C)nc3cc(OC)c(OC)cc23)c1
A. 1890

====

MEASUREMENT_TARGET: Sodium-dependent dopamine transporter (Homo sapiens, UniProt Q01959)
Sequence (Q01959 whole entry): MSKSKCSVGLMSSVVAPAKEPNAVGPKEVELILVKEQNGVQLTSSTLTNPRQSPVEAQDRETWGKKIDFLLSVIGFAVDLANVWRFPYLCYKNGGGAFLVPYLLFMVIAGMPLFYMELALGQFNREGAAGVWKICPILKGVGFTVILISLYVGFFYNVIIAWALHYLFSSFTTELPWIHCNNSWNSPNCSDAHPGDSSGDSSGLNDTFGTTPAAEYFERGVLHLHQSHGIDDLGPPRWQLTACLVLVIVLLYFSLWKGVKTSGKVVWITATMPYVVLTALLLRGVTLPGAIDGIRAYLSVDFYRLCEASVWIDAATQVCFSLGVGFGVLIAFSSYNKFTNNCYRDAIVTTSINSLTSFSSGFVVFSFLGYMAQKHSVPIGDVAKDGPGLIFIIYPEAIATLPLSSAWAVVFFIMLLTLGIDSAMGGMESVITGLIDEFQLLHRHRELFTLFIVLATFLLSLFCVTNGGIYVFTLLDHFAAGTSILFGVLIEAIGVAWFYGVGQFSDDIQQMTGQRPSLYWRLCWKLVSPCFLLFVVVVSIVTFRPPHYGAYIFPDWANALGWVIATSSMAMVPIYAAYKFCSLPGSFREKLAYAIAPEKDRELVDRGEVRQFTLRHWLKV
METHOD_DESCRIPTION: GPCRScan assay: inhibition of DAT
Set-up: radioligand conc. used [nm] 3.6 – 16.0, parental cells stable HEK
PARTICULARS: read-out: Ki
For each entry below, report its pKi value.
Answers are plain numbers, as −log10 of the molar value.

- CNCc1ccccc1-c1csc([C@H](C)Nc2nc(C)nc3cc(OC)c(OC)cc23)c1 [BAY-294]: 5.78

Q. So what pKi did CNCc1ccccc1-c1csc([C@@H](C)Nc2nc(C)nc3cc(OC)c(OC)cc23)c1 [BAY-293] get with Sodium-dependent dopamine transporter (Homo sapiens, UniProt Q01959)?
A. 6.28

====

MEASUREMENT_TARGET: Muscarinic acetylcholine receptor M3 (Homo sapiens, UniProt P20309)
Sequence (P20309 whole entry): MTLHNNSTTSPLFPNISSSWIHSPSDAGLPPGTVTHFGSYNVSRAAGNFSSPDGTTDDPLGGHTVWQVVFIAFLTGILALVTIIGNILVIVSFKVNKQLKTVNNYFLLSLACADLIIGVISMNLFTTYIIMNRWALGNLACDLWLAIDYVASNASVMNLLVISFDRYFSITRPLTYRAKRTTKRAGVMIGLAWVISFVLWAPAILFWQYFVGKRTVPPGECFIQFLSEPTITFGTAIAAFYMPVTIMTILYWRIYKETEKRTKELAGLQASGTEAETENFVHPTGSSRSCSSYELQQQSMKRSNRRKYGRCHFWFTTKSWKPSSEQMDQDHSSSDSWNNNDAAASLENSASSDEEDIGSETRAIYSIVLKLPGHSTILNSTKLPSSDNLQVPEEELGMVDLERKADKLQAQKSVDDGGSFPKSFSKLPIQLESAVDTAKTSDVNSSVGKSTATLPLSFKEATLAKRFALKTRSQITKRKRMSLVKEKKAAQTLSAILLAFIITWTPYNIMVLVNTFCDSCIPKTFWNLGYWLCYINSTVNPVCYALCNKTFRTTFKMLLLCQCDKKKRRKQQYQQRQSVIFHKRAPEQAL
METHOD_DESCRIPTION: GPCRScan assay: inhibition of M3
Set-up: radioligand conc. used [nm] 0.3 – 1.0, parental cells stable CHO
PARTICULARS: read-out: Ki
OBSERVED_PROPERTY: Ki

Q. Dear colleague, I am looking for the recorded Ki of the following compound: CNCc1ccccc1-c1csc([C@@H](C)Nc2nc(C)nc3cc(OC)c(OC)cc23)c1
A. 972 nM

====

For each entry below, report its pKi value.
MEASUREMENT_TARGET: Alpha-2A adrenergic receptor (Homo sapiens)
Sequence (P08913 whole entry): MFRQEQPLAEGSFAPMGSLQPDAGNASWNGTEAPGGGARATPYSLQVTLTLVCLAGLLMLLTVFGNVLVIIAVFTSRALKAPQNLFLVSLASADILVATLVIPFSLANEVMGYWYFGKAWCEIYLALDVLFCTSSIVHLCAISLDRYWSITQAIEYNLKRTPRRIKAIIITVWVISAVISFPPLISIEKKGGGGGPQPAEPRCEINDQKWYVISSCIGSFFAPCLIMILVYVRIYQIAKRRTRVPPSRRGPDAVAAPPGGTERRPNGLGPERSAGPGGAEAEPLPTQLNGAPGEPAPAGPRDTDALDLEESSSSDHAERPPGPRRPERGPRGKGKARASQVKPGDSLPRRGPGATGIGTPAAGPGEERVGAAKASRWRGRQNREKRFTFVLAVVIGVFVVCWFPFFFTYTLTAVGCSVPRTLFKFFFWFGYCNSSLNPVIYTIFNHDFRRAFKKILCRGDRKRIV
Answers are plain numbers, as −log10 of the molar value.

- CNCc1ccccc1-c1csc([C@@H](C)Nc2nc(C)nc3cc(OC)c(OC)cc23)c1: 6.42

Attention now shifts to the item below.
Q. Dear colleague, I am looking for the recorded pKi of the following compound: CNCc1ccccc1-c1csc([C@H](C)Nc2nc(C)nc3cc(OC)c(OC)cc23)c1
A. 6.89

====

MEASUREMENT_TARGET: 5-hydroxytryptamine receptor 1B (Homo sapiens)
Sequence (P28222 whole entry): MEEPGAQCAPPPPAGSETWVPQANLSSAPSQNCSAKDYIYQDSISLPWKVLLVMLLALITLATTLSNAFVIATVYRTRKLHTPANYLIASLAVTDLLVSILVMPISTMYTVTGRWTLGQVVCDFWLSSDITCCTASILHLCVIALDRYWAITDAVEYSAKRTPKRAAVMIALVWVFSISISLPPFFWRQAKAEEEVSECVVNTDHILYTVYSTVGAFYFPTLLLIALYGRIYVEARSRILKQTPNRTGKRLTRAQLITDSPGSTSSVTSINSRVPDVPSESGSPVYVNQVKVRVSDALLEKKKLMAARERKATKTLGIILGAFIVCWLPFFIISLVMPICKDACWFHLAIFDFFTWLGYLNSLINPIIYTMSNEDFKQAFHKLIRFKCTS
METHOD_DESCRIPTION: GPCRScan assay: inhibition of 5-HT1B
Parameters: radioligand conc. used [nm] 0.6 – 1.5, parental cells stable HEK
PARTICULARS: read-out: Ki
OBSERVED_PROPERTY: Ki
The answer should read as a number with its unit following.

* CNCc1ccccc1-c1csc([C@H](C)Nc2nc(C)nc3cc(OC)c(OC)cc23)c1 | 1760 nM

Q. Dear colleague, I am looking for the recorded Ki of the following compound: CNCc1ccccc1-c1csc([C@@H](C)Nc2nc(C)nc3cc(OC)c(OC)cc23)c1
A. 1410 nM

====

For each entry below, report its Ki value.
MEASUREMENT_TARGET: Muscarinic acetylcholine receptor M5 (Homo sapiens)
Sequence (P08912 whole entry): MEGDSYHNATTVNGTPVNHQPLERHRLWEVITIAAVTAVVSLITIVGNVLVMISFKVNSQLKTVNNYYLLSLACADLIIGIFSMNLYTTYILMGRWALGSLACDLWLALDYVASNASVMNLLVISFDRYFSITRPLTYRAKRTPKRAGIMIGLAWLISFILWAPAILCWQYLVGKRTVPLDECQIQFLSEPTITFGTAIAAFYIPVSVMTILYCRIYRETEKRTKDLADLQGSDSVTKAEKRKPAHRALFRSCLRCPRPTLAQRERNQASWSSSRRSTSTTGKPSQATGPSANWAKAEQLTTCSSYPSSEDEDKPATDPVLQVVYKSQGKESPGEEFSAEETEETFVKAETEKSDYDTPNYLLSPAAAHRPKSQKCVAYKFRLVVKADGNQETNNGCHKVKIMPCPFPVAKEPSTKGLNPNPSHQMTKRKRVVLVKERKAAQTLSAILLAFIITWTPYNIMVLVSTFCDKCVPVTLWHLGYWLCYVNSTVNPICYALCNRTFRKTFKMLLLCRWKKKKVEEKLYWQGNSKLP
METHOD_DESCRIPTION: GPCRScan assay: inhibition of M5
Parameters: radioligand conc. used [nm] 0.2 – 1.0, parental cells stable CHO
PARTICULARS: read-out: Ki
Answers are plain numbers, in nM.

• CNCc1ccccc1-c1csc([C@H](C)Nc2nc(C)nc3cc(OC)c(OC)cc23)c1 [BAY-294] = 524

Attention now shifts to the item below.
Q. Dear colleague, I am looking for the recorded Ki of the following molecule: CNCc1ccccc1-c1csc([C@@H](C)Nc2nc(C)nc3cc(OC)c(OC)cc23)c1 [BAY-293]
A. 956
